Entries and their %Inh
tested on: SNRK; conditions: concentration: 1 μM, replicates: in singlicate; n = 1;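 also: KINOMEscan kinase panel screen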
Give just the numeric value; % need not be written.

Item Smiles: Nc1ncnc2c1ncn2-c1ccc(Cl)cc1
Result Units: %
Reported Value: 0

Item Smiles: Cc1nnc(-c2ccc(C)c(-c3ccc(C(=O)O)cc3)c2)o1
Result Units: %
Reported Value: 0

Item Smiles: COc1cc2ncn(-c3cc(OCCCc4ccccc4)c(C(N)=O)s3)c2cc1OC
Result Units: %
Reported Value: 0

# molecule COc1cc(Nc2ccnc3ccc(C(F)(F)F)cc23)cc(OC)c1OC ; its %Inh = 0

# molecule Cc1cccc(-c2cc(-c3c[nH]nc3-c3ccccn3)ccn2)c1 ; its %Inh = 0

# molecule O=c1cc(N2CCOCC2)nc2n(Cc3ccc(F)c(Cl)c3)ccn12 ; its %Inh = 0

# molecule Cl.NS(=O)(=O)c1cccc(Nc2cc(-c3ccc(F)cc3)n[nH]2)c1 ; its %Inh = 0

Reference source: paper PMC5540273
